The measured values listed here are drawn from patent US20120316105A1.

# System: EC-1, mouse virulent strain of Escherichia coli
# Assay type: cell-based
# setup-conditions: E. coli EC-1; overnight incubation, lower of duplicate values; trifluoroacetate salt (Example 1 and PMB sulfate)
Bridge positions count the residues as written; N and C are the ends. Square brackets hold non-standard residues; d marks the D form. Peptide text beside a SMILES is read from it. * marks the point of attachment. Isonicotinoyl(2-Ph) = O=C(c1ccnc(-c2ccccc2)c1)*; X13 = N#Cc1ccc(-c2cc(C(=O)*)ccc2F)cc1; X19 = N#Cc1ccc(-c2cccc(C(=O)*)c2)nc1; X38 = O=S(=O)(c1cccc(-c2ccccc2)c1)*; X24 = COc1ccc(-c2ccccc2)cc1C(=O)*; dDap = NC[C@@H](N)C(=O)O; Dab = NCC[C@H](N)C(=O)O; Dap = NC[C@H](N)C(=O)O
readout-name: EC-1 MIC (µg/mL)
Field format: number, assumed µg/mL, no unit text.

compound	system-name	EC-1 MIC / µg/mL
CC(C)C[C@@H]1NC(=O)[C@@H](Cc2ccccc2)NC(=O)[C@H](CCN)NC(=O)[C@@H](NC(=O)[C@@H](CN)NC(=O)[C@@H](NC(=O)[C@H](CCN)NC(=O)c2ccnc(-c3ccccc3)c2)[C@@H](C)O)CCNC(=O)[C@H]([C@@H](C)O)NC(=O)[C@H](CCN)NC(=O)[C@H](CCN)NC1=O [Example 47] ({Isonicotinoyl(2-Ph)}-[Dab]T[dDap][Dab][Dab][dF]L[Dab][Dab]T; lactam 4-C)	EC-1, mouse virulent strain of Escherichia coli	0.25
CC(C)C[C@@H]1NC(=O)[C@@H](Cc2ccccc2)NC(=O)[C@H](CCN)NC(=O)[C@@H](NC(=O)[C@H](CN)NC(=O)[C@@H](NC(=O)[C@H](CCN)NS(=O)(=O)c2cccc(-c3ccccc3)c2)[C@@H](C)O)CCNC(=O)[C@H]([C@@H](C)O)NC(=O)[C@H](CCN)NC(=O)[C@H](CCN)NC1=O [Example 41] (X38-[Dab]T[Dap][Dab][Dab][dF]L[Dab][Dab]T; lactam 4-C)	EC-1, mouse virulent strain of Escherichia coli	0.25
CC(C)C[C@@H]1NC(=O)[C@@H](Cc2ccccc2)NC(=O)[C@H](CCN)NC(=O)[C@@H](NC(=O)[C@H](CN)NC(=O)[C@@H](NC(=O)[C@H](CCN)NC(=O)c2ccc(F)c(-c3ccc(C#N)cc3)c2)[C@@H](C)O)CCNC(=O)[C@H]([C@@H](C)O)NC(=O)[C@H](CCN)NC(=O)[C@H](CCN)NC1=O [Example 33] (X13-[Dab]T[Dap][Dab][Dab][dF]L[Dab][Dab]T; lactam 4-C)	EC-1, mouse virulent strain of Escherichia coli	0.5

[in] What measured EC-1 MIC is associated with CC(C)C[C@@H]1NC(=O)[C@@H](Cc2ccccc2)NC(=O)[C@H](CCN)NC(=O)[C@@H](NC(=O)[C@H](CN)NC(=O)[C@@H](NC(=O)[C@H](CCN)NC(=O)c2cccc(-c3ccc(C#N)cn3)c2)[C@@H](C)O)CCNC(=O)[C@H]([C@@H](C)O)NC(=O)[C@H](CCN)NC(=O)[C@H](CCN)NC1=O [Example 26] (X19-[Dab]T[Dap][Dab][Dab][dF]L[Dab][Dab]T; lactam 4-C) on EC-1, mouse virulent strain of Escherichia coli?
[out] 0.25

[in] What measured EC-1 MIC is associated with COc1ccc(-c2ccccc2)cc1C(=O)N[C@@H](CCN)C(=O)N[C@H](C(=O)N[C@@H](CN)C(=O)N[C@H]1CCNC(=O)[C@H]([C@@H](C)O)NC(=O)[C@H](CCN)NC(=O)[C@H](CCN)NC(=O)[C@H](CC(C)C)NC(=O)[C@@H](Cc2ccccc2)NC(=O)[C@H](CCN)NC1=O)[C@@H](C)O [Example 36] (X24-[Dab]T[Dap][Dab][Dab][dF]L[Dab][Dab]T; lactam 4-C) on EC-1, mouse virulent strain of Escherichia coli?
[out] 0.5

---

# System: EC-1, mouse virulent strain of Escherichia coli
# Assay type: cell-based
# setup-conditions: E. coli EC-1; overnight incubation, lower of duplicate values; trifluoroacetate salt (Example 1 and PMB sulfate)
# Method: Minimum bactericidal concentration (MBC, mg/L), minimum inhibitory concentration (MIC, mg/L), and human renal proximal tubule epithelial cell line cytotoxicity concentration 50% (hRPTEC, TC50, micromolar) for compounds of Formula I are listed in Table 2. […] The in vitro antibacterial activity of compounds of Formula I was evaluated by MIC testing according to Clinical and Laboratory Standards Institute (CLSI). […]
Bridge positions count the residues as written; N and C are the ends. Square brackets hold non-standard residues; d marks the D form. Peptide text beside a SMILES is read from it. * marks the point of attachment. X3 = O=C(c1ccnc(-c2cccc(Cl)c2)c1)*; X35 = N#Cc1ccc(C(=O)*)cc1-c1ccccc1; X10 = COc1nc(-c2ccccc2)ccc1C(=O)*; X31 = O=C(c1ccnc(-c2ccccc2Cl)c1)*; X1 = CC[C@H](C)CCCCC(=O)*; Dab = NCC[C@H](N)C(=O)O; Dap = NC[C@H](N)C(=O)O
This section presents molecules with their documented EC-1 MIC values.
Field format: number, assumed µg/mL, no unit text.

molecule	readout-name	observed-result
CC(C)C[C@@H]1NC(=O)[C@@H](Cc2ccccc2)NC(=O)[C@H](CCN)NC(=O)[C@@H](NC(=O)[C@H](CN)NC(=O)[C@@H](NC(=O)[C@H](CCN)NC(=O)c2ccnc(-c3ccccc3Cl)c2)[C@@H](C)O)CCNC(=O)[C@H]([C@@H](C)O)NC(=O)[C@H](CCN)NC(=O)[C@H](CCN)NC1=O [Example 4] (X31-[Dab]T[Dap][Dab][Dab][dF]L[Dab][Dab]T; lactam 4-C)	EC-1 MIC	0.125
COc1nc(-c2ccccc2)ccc1C(=O)N[C@@H](CCN)C(=O)N[C@H](C(=O)N[C@@H](CN)C(=O)N[C@H]1CCNC(=O)[C@H]([C@@H](C)O)NC(=O)[C@H](CCN)NC(=O)[C@H](CCN)NC(=O)[C@H](CC(C)C)NC(=O)[C@@H](Cc2ccccc2)NC(=O)[C@H](CCN)NC1=O)[C@@H](C)O [Example 38] (X10-[Dab]T[Dap][Dab][Dab][dF]L[Dab][Dab]T; lactam 4-C)	EC-1 MIC	0.25
CC[C@H](C)CCCCC(=O)N[C@@H](CCN)C(=O)N[C@H](C(=O)N[C@@H](CN)C(=O)N[C@H]1CCNC(=O)[C@H]([C@@H](C)O)NC(=O)[C@H](CCN)NC(=O)[C@H](CCN)NC(=O)[C@H](CC(C)C)NC(=O)[C@@H](Cc2ccccc2)NC(=O)[C@H](CCN)NC1=O)[C@@H](C)O [Example 43] (X1-[Dab]T[Dap][Dab][Dab][dF]L[Dab][Dab]T; lactam 4-C)	EC-1 MIC	0.125
CC(C)C[C@@H]1NC(=O)[C@@H](Cc2ccccc2)NC(=O)[C@H](CCN)NC(=O)[C@@H](NC(=O)[C@H](CN)NC(=O)[C@@H](NC(=O)[C@H](CCN)NC(=O)c2ccc(C#N)c(-c3ccccc3)c2)[C@@H](C)O)CCNC(=O)[C@H]([C@@H](C)O)NC(=O)[C@H](CCN)NC(=O)[C@H](CCN)NC1=O [Example 2] (X35-[Dab]T[Dap][Dab][Dab][dF]L[Dab][Dab]T; lactam 4-C)	EC-1 MIC	0.125

Attention now turns to another entry.
[in] For the molecule CC[C@H](C)[C@@H]1NC(=O)[C@@H](Cc2ccccc2)NC(=O)[C@H](CCN)NC(=O)[C@@H](NC(=O)[C@H](CN)NC(=O)[C@@H](NC(=O)[C@H](CCN)NC(=O)c2ccnc(-c3cccc(Cl)c3)c2)[C@@H](C)O)CCNC(=O)[C@H]([C@@H](C)O)NC(=O)[C@H](CCN)NC(=O)[C@H](CCN)NC1=O [Example 48] (X3-[Dab]T[Dap][Dab][Dab][dF]I[Dab][Dab]T; lactam 4-C) , what EC-1 MIC is on record?
[out] 0.25

---

This section presents molecules with their documented AB-3167 MIC values.
# System: AB-3167, clinical isolate of Acinetobacter baumannii
# Format: cell-based
# setup-conditions: AB-3167, clinical isolate of
Numbered stars: 1 amine (or outer) side, 2 acyl side, 3 side chain; on linkers, the order of the positions; unused ones are H or OH. Bridge positions count the residues as written; N and C are the ends. Square brackets hold non-standard residues; d marks the D form. Peptide text beside a SMILES is read from it. * marks the point of attachment. X4 = N#Cc1cccc(-c2cc(C(=O)*)ccc2C#N)c1; X24 = COc1ccc(-c2ccccc2)cc1C(=O)*; X36 = c1ccc(-c2cccc(N*)c2)cc1; Dab = NCC[C@H](N)C(=O)O; Dap = NC[C@H](N)C(=O)O; CO = O=C([*:1])[*:2]

Example entries begin here.
molecule	system-name	AB-3167 MIC
CC(C)C[C@@H]1NC(=O)[C@@H](Cc2ccccc2)NC(=O)[C@H](CCN)NC(=O)[C@@H](NC(=O)[C@H](CN)NC(=O)[C@@H](NC(=O)[C@H](CCN)NC(=O)c2ccc(C#N)c(-c3cccc(C#N)c3)c2)[C@@H](C)O)CCNC(=O)[C@H]([C@@H](C)O)NC(=O)[C@H](CCN)NC(=O)[C@H](CCN)NC1=O [Example 14] (X4-[Dab]T[Dap][Dab][Dab][dF]L[Dab][Dab]T; lactam 4-C)	AB-3167, clinical isolate of Acinetobacter baumannii	0.5 µg/mL
CC(C)C[C@@H]1NC(=O)[C@@H](Cc2ccccc2)NC(=O)[C@H](CCN)NC(=O)[C@@H](NC(=O)[C@H](CN)NC(=O)[C@@H](NC(=O)[C@H](CCN)NC(=O)Nc2cccc(-c3ccccc3)c2)[C@@H](C)O)CCNC(=O)[C@H]([C@@H](C)O)NC(=O)[C@H](CCN)NC(=O)[C@H](CCN)NC1=O [Example 40] ({X36-CO}-[Dab]T[Dap][Dab][Dab][dF]L[Dab][Dab]T; lactam 4-C)	AB-3167, clinical isolate of Acinetobacter baumannii	0.25 µg/mL

Attention now turns to another entry.
[in] For the molecule COc1ccc(-c2ccccc2)cc1C(=O)N[C@@H](CCN)C(=O)N[C@H](C(=O)N[C@@H](CN)C(=O)N[C@H]1CCNC(=O)[C@H]([C@@H](C)O)NC(=O)[C@H](CCN)NC(=O)[C@H](CCN)NC(=O)[C@H](CC(C)C)NC(=O)[C@@H](Cc2ccccc2)NC(=O)[C@H](CCN)NC1=O)[C@@H](C)O [Example 36] (X24-[Dab]T[Dap][Dab][Dab][dF]L[Dab][Dab]T; lactam 4-C) , what AB-3167 MIC is on record?
[out] 0.25 µg/mL
